Data credit: PubChem BioAssay AID449762

Each item that follows carries a reported inhibition.
assay: M. tuberculosis growth inhibition, HTS (AID 449762);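 further: bacterial growth assessed after seven days of incubation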; conditions: M. tuberculosis H37Rv growth inhibition, 7H9 media; at 25 µM; stronger effect = higher value
The campaign covered roughly 330,000 compounds. About 1,900 (0.58%) were called active. About 4% were inconclusive and are not listed. These entries were drawn from the full list. Entries with a potency or affinity are not part of this list.

{"compound": "Cn1c(CNc2ccc(O)cc2)nc2ccccc21", "inhibition (%)": -0.5}
{"compound": "COc1cccc(C(=O)OCC(=O)N2CCc3ccccc3C2)c1OC", "inhibition (%)": -0.41}
{"compound": "O=C1c2ccccc2C(=O)N1Cc1ccc2c(c1)OCO2", "inhibition (%)": 4.9}
{"compound": "Cc1ccc(SC2=C(Sc3ccc(C)cc3)C(=O)c3ccccc3C2=O)cc1", "inhibition (%)": -5.39}
{"compound": "CN(C)/N=C/c1c(O)ccc2ccccc12", "inhibition (%)": 27.8}
{"compound": "COC(=O)CSc1nnc(COc2ccc3ccccc3c2)o1", "inhibition (%)": -6.41}
{"compound": "CCOC(=O)c1sc2nc(C)nc(SC(C)C(=O)NC3CC3)c2c1C (stereo unspecified)", "inhibition (%)": 44}
{"compound": "COc1ccccc1NC(=O)c1ccccc1C(=O)N(C)Cc1ccccc1", "inhibition (%)": -2.3}
{"compound": "O=S1(=O)N=C(SCCO)c2ccccc21", "inhibition (%)": 8.5}
{"compound": "COC(=O)c1c(C)nn(-c2ccc(OC(F)(F)F)cc2)c1-c1snnc1C", "inhibition (%)": 5.4}
{"compound": "COc1ccc(C)cc1NC(=O)c1ccc(NC(=O)CC2SC(N3CCCC3)=NC2=O)cc1 (stereo unspecified)", "inhibition (%)": 1.94}

* * *

experiment: M. tuberculosis growth inhibition, HTS (AID 449762);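 further: bacterial growth assessed after seven days of incubation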; conditions: M. tuberculosis H37Rv growth inhibition, 7H9 media; at 25 µM; stronger effect = higher value
Hit rate of the full screen: of about 330,000 compounds, about 1,900 (0.58%) were called active. About 4% were inconclusive and are not listed. Not all results are given here. Measured potencies and affinities stand elsewhere.
Each item that follows carries a reported inhibition.
reported.property: inhibition (%)

{"chemical.structure": "CCOc1ccc(S(=O)(=O)N2CCCCC2)cc1NS(=O)(=O)c1cccs1", "endpoint.result": -3.42}
{"chemical.structure": "COc1ccc(N2CCN(C(=O)c3cc4cc(Cl)ccc4[nH]3)CC2)cc1", "endpoint.result": -7.94}
{"chemical.structure": "O=C1C(Cl)=C(N2CCOCC2)C(=O)N1c1cccc(C(F)(F)F)c1", "endpoint.result": 8.59}
{"chemical.structure": "COC(=O)c1ccc(NS(=O)(=O)N(C)C)cc1", "endpoint.result": -1.07}
{"chemical.structure": "CCOc1cc(Cl)c(CNCCCN2CCOCC2)cc1OC", "endpoint.result": 5.34}
{"chemical.structure": "O=C(NCCCN1CCOCC1)c1ccc(Sc2ccc(F)cc2)c([N+](=O)[O-])c1", "endpoint.result": -0.04}

* * *

assay: M. tuberculosis growth inhibition, HTS (AID 449762);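 further: bacterial growth assessed after seven days of incubation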; conditions: M. tuberculosis H37Rv growth inhibition, 7H9 media; at 25 µM; stronger effect = higher value
In all, about 330,000 compounds went through this assay and about 1,900 (0.58%) were called active. Not shown: some 4% with an inconclusive outcome. A selection follows. Potency and affinity values are given separately.

{"molecule": "S=c1[nH]nc(C2CCCCC2)n1/N=C/c1ccccc1", "inhibition": "9.46% (inactive)"}
{"molecule": "C/C=C(\\C)CN1CCCC(CO)(Cc2ccccc2)C1 (stereo unspecified)", "inhibition": "12.6% (inactive)"}
{"molecule": "CC(NC(=O)c1ccccc1Cl)C1CC2CCC1C2 (stereo unspecified)", "inhibition": "4.24% (inactive)"}
{"molecule": "CC1CCCC(C)N1C(=O)CN1c2cccc3cccc(c23)S1(=O)=O (stereo unspecified)", "inhibition": "-12.9% (inactive)"}
{"molecule": "Cc1cc(C)n(-c2ccc(Cl)c(C(=O)OCC(=O)N3CCCCC3C)n2)n1 (stereo unspecified)", "inhibition": "-1.17% (inactive)"}
{"molecule": "COc1ccc(C(=O)NC(C)C2CC3CCC2C3)c(OC)c1 (stereo unspecified)", "inhibition": "7.27% (inactive)"}
{"molecule": "COc1ccccc1N=c1c2c([N+](=O)[O-])cc([N+](=O)[O-])cc2n(O)n1-c1ccccc1OC", "inhibition": "-0.38% (inactive)"}
{"molecule": "CC(/C=N/n1c(-c2cc(C)[nH]n2)n[nH]c1=S)=C\\c1ccccc1", "inhibition": "-2.29% (inactive)"}
{"molecule": "O=C(Nc1ccc(F)cc1)c1cnc(-c2ccccc2)nc1-c1ccccc1", "inhibition": "-11.2% (inactive)"}
{"molecule": "CCOP(=O)(OCC)C(O)c1cc(OC)c(OC)c(OC)c1 (stereo unspecified)", "inhibition": "0.28% (inactive)"}
{"molecule": "O=C(CCc1c[nH]c2ccccc12)OCC(=O)N1CCN(S(=O)(=O)c2ccccc2)CC1", "inhibition": "43.2% (inactive)"}

* * *

experiment: M. tuberculosis growth inhibition, HTS (AID 449762);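 further: bacterial growth assessed after seven days of incubation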; settings: M. tuberculosis H37Rv growth inhibition, 7H9 media; at 25 µM; stronger effect = higher value
The campaign covered roughly 330,000 compounds. About 1,900 (0.58%) were called active. Inconclusive results (about 4%) are left out. A selection follows. Measured potencies and affinities stand elsewhere.
Each item that follows carries a reported inhibition.

{"molecule": "C=CC[C@H](CC(=O)OC(C)(C)C)C(=O)OC[C@H]1CCCN1C(=O)[C@@H](CC=C)CC(=O)N(CCO)Cc1ccccc1", "inhibition, %": -3.24}
{"molecule": "CC(C)NC(=O)c1ccc(-n2c(=S)[nH]c3ccccc3c2=O)cc1", "inhibition, %": -2.47}
{"molecule": "CC1CN(c2ccc(C(=O)c3ccccc3C(=O)O)cc2[N+](=O)[O-])CC(C)O1 (stereo not drawn)", "inhibition, %": -1.03}
{"molecule": "Cc1ccc(CCNC(=O)C2CCN(S(=O)(=O)c3ccc4nc5c(c(C(=O)O)c4c3)CCCC5)CC2)cc1", "inhibition, %": -1.27}
{"molecule": "CCOc1ccc(C(=O)Nc2ccc3c(c2)OCCO3)cc1", "inhibition, %": 9.28}
{"molecule": "CN(Cc1ccccc1)c1nc(CN2CCOCC2)nc2scc(-c3ccccc3)c12", "inhibition, %": 5.04}
{"molecule": "CCc1nnc(NC(=O)CN2CCN(Cc3cccc(F)c3)CC2)s1", "inhibition, %": 13.7}
{"molecule": "Cc1ccc(Sc2ccc(C(=O)N3CCOCC3)cc2[N+](=O)[O-])cc1", "inhibition, %": 0.73}
{"molecule": "CCOC(=O)c1c(NC(=O)CSc2nnc(C)s2)sc2c1CCC(CC)C2 (stereo not drawn)", "inhibition, %": -2.5}
{"molecule": "O=C(c1cccs1)N1CCC(c2nc3c(nnn3Cc3cccc(Cl)c3)c(=O)[nH]2)CC1", "inhibition, %": 6.04}
{"molecule": "COc1ccc(NC(=O)c2sc3nc(C)nc(N4CCOCC4)c3c2C)c(OC)c1", "inhibition, %": -1.8}
{"molecule": "Cc1ccc(NC(=O)c2ccsc2)cc1NS(C)(=O)=O", "inhibition, %": -6.89}
{"molecule": "O=C(NC(=S)Nc1ccccc1Cl)C1CC1", "inhibition, %": 11.2}
{"molecule": "CCc1sc2nc(SCC(=O)Nc3cc(C)on3)n(-c3cccc(OC)c3)c(=O)c2c1C", "inhibition, %": -0.05}
{"molecule": "COc1cc2c(cc1OC)C1=C(C#N)CCC(=O)N1CC2", "inhibition, %": 7.82}
{"molecule": "Cc1ccc2cc(C)c3nnc(SCC(=O)N4CCN(C(=O)c5ccco5)CC4)n3c2c1", "inhibition, %": -3.44}
{"molecule": "Cn1c(CSCc2ccc(F)cc2)n[nH]c1=S", "inhibition, %": -6.48}
{"molecule": "Cc1ccc(C2=NCC(=O)N(CC(=O)N3CCCCC3)c3sc(C)c(C)c32)cc1", "inhibition, %": 3.22}
{"molecule": "Cc1nnc(SCc2ccc(C(=O)Nc3cc(Cl)ccc3C)cc2)s1", "inhibition, %": -1.77}
{"molecule": "CCNc1nc(CN2CCCCC2)nc2scc(-c3ccccc3)c12", "inhibition, %": 40.7}
{"molecule": "CCN(CCn1cccn1)C(=O)c1cc(COc2cccc3cccnc23)on1", "inhibition, %": -3.82}
{"molecule": "CCOc1ccc(NC(=O)COC(=O)c2ccc3c(c2)OCCO3)cc1", "inhibition, %": 9.4}
{"molecule": "CN(C)CCCNC1=CC(=O)CC(c2ccccc2)C1 (stereo not drawn)", "inhibition, %": -4.95}
{"molecule": "CCc1c(C)sc2nc3c(C(=O)N4CCOCC4)cc(C(=O)c4ccccc4O)cn3c(=O)c12", "inhibition, %": 51.4}
{"molecule": "c1ccc(-c2nc3ccccc3[nH]2)cc1", "inhibition, %": 9.27}
{"molecule": "COC(=O)c1sccc1NC(=O)c1ccccc1C(=O)O", "inhibition, %": 1.76}
{"molecule": "CC1(c2nnc(-c3ccccc3)o2)CC(c2ccc([N+](=O)[O-])cc2)=NO1 (stereo not drawn)", "inhibition, %": -0.65}
{"molecule": "CCOC(=O)C1CCCN(CC(O)COc2cccc(C)c2)C1 (stereo not drawn)", "inhibition, %": -3.72}
{"molecule": "COc1ccc(C(CC(=O)NCCCN2CCOCC2)NS(=O)(=O)c2ccc(C)cc2)cc1 (stereo not drawn)", "inhibition, %": -3.32}
{"molecule": "COCC(=O)N1CCC(Oc2cccc(C(=O)NCc3ccccn3)c2)CC1", "inhibition, %": -0.85}
{"molecule": "O=C(Nc1cccc(C(=O)N2CCCc3ccccc32)c1)c1ccccc1", "inhibition, %": 6.88}
{"molecule": "CCN(CC(=O)NCc1cccs1)C(=O)c1ccc(C)o1", "inhibition, %": 2.46}
{"molecule": "Clc1cccc(C2Nc3cccc4cccc(c34)N2)c1", "inhibition, %": 11.6}
{"molecule": "CCN(CC(=O)NCc1cccs1)C(=O)c1ccc(-c2ccc(F)cc2)o1", "inhibition, %": -1.53}
{"molecule": "CCOc1ccc(-c2cc(CCCC(=O)NCCc3ccccc3)no2)cc1", "inhibition, %": -2.4}
{"molecule": "Cc1nn(-c2ccccc2)cc1C(c1c(N)[nH]c(=S)[nH]c1=O)c1c(N)[nH]c(=S)[nH]c1=O", "inhibition, %": 4.9}
{"molecule": "CCCCCNC1=CC(=O)CC(c2ccccc2)C1 (stereo not drawn)", "inhibition, %": -1.58}
{"molecule": "O=C(c1ccc(-c2cccc(C(F)(F)F)c2)o1)N1CCCCCCC1", "inhibition, %": 4.53}
{"molecule": "CCCCNC(=O)CSc1nc2c(sc(=S)n2-c2cc(Cl)ccc2OC)c(=O)[nH]1", "inhibition, %": 2.82}
{"molecule": "O=C1[C@H]2[C@@H](c3ccc(F)cc3)N3C(=O)N(c4ccccc4)C(=O)[C@@]3(Cc3ccccc3)[C@H]2C(=O)N1C1CCCCC1", "inhibition, %": -4.71}
{"molecule": "CCN(c1ccccc1)S(=O)(=O)c1ccc(Cl)c(NC(=O)COC(=O)c2ccc[nH]c2=O)c1", "inhibition, %": -8.08}
{"molecule": "Cn1c(=O)c2c(ncn2CC(=O)Nc2ccccc2Sc2ccccc2)n(C)c1=O", "inhibition, %": -2.88}
{"molecule": "Cc1nn(C)c(NC(=O)c2ccccc2Cl)c1Br", "inhibition, %": -4.03}
